system: OVCAR-3 ovarian; assay: NCI tumour cell line growth inhibition, 48 h
MEASUREMENT NAME: TGI

Known results for compounds:
COc1ccc2c(c1)c1nn(CCN(C)C)c3ccc4c(=O)n(CCN(C)C)c(=O)n2c4c13	0.255 µM
CC(=O)OCCC1c2ccccc2-n2nc(-c3ccccc3)c(O)c21 (stereo not drawn)	49.3 µM
N#C/C(=C1\N=C(c2ccccc2O)Oc2ccccc21)c1ccc([N+](=O)[O-])cc1	> 100 µM

Could you tell me TGI for each of these compounds? They are listed below.
1. O=C1C2=C(c3ccccc31)C(c1ccc(Cl)cc1)N1C(=O)CCSC1=N2 (stereo not drawn)
2. NC(N)=NC(CC(=O)O)c1ccccc1 (stereo not drawn)
3. CNC(=O)OCc1nc(SC(C)C)n(C)c1COC(=O)NC

Resp:
["> 100 µM", "> 100 µM", "> 100 µM"]

* * *

test system: ACHN renal; assay: NCI tumour cell line growth inhibition, 48 h; in the data active means GI50 below about 0.43 µM; inactive means the rest
Write down one outcome, taken from 1 (active), 0 (inactive)

Req: Lab log entry: Cn1cc(-c2ccc(=O)n(Cc3cccc(-c4ncc(OCCN5CCOCC5)cn4)c3)n2)cn1 — outcome as called in the assay?
Resp: 0

Req: Call for entry O=C1c2cc3c(cc2-c2c1c1cc(Cl)c(Cl)cc1c(=O)n2CCCn1ccnc1)OCO3 :
Resp: 1

* * *

test system: SNB-19 CNS; test: NCI tumour cell line growth inhibition, 48 h; in the data active = GI50 below about 0.43 µM; inactive = the rest
Mark one answer only. Choices: active, inactive

Here's what some known entries look like.
COc1cc2cc(Oc3ccc(NC(=O)Nc4cccc(C(F)(F)F)c4)cc3)c(C)nc2cc1OCCN1CCCCC1	inactive
CCCCCCCCCCCCc1ccc(C(=O)/C=C/C(=O)O)cc1	inactive
O=C(Nc1ccncc1)C(=O)c1cn(S(=O)(=O)c2ccc(Br)cc2)c2ccccc12	inactive

Req: Could you please tell me the result logged for C[C@@H](c1ccc2nccn2c1)n1nnc2ncc(-c3cnn(C)c3)nc21 in this assay?
Resp: inactive

Req: Which outcome was entered for the compound OB([O][Hg][c]1ccccc1)[O][Hg][c]1ccccc1 in this test?
Resp: inactive

Req: Tell me the recorded outcome of this test for O=C1c2cc3c(cc2-c2c1c1cc(Cl)c(Cl)cc1c(=O)n2CCCn1ccnc1)OCO3 .
Resp: active

* * *

Exercise: state measured TGI for each of the compounds provided.
test system: UACC-62 melanoma; assay: NCI tumour cell line growth inhibition, 48 h

Example cases with answers are listed next.
O=C1C(C(O)(C(F)(F)Cl)C(F)(F)Cl)CCC1C(O)(C(F)(F)Cl)C(F)(F)Cl (centres undefined)	> 10 µM
CC[C@@H]1CN2CCC1C[C@@H]2C(O)c1ccnc2ccc(OCCN3CCN(CCOc4ccc5nccc(C(O)[C@@H]6C[C@@H]7CCN6C[C@@H]7CC)c5c4)CC3)cc12 (some centres undefined)	30.5 µM
CC(=O)Oc1ccccc1[C@H]1CC(=O)C[C@H](c2ccccc2OC(C)=O)C12C(=O)c1ccccc1C2=O	30.9 µM
COc1ccc(-c2oc3cc(O)c(OC)c(O)c3c(=O)c2OC2OC(CO)C(O)C(O)C2O)cc1 (centres undefined)	> 100 µM
O/N=c1/ccn(O)c2ccccc12	2.53 µM
NC(N)=NS(=O)(=O)c1ccc(NC(=O)c2cccc3c(Nc4ccc(S(=O)(=O)N=C(N)N)cc4)c4ccc(Cl)cc4nc23)cc1	> 100 µM

Hi team, please reply with TGI for each item in this list.
1. COC1C=C(Nc2cccc(Cl)c2)C(=O)C1 (centres undefined)
2. CN(C)CCOc1ccc(I)cc1Cc1ccccc1
3. O=C1c2ccccc2-c2c1c1ccccc1c(=O)n2CCO
4. OC1c2ccccc2[C@@H]2[C@H]1[C@@H](c1ccccc1)C1(Cc3ccccc3C1O)[C@H]2c1ccccc1 (some centres undefined)
5. O=C(Nc1ccncc1)C(=O)c1cn(S(=O)(=O)c2ccc(Br)cc2)c2ccccc12

Resp:
> 100 µM
13.1 µM
> 59.5 µM
20.6 µM
> 100 µM

Record TGI for all entries; do not skip any.
1. COC(=O)c1ccc2c(c1)CC1(C2)Cc2cc3c(c(C(=O)OC)c2C1)CCCC3 (centres undefined)
2. COC(=O)C1Cc2ccc(C)cc2C1=O (centres undefined)
3. OB([O][Hg][c]1ccccc1)[O][Hg][c]1ccccc1

Resp:
1. > 100 µM
2. > 100 µM
3. 1.69 µM

* * *

system: SR leukemia; experiment: NCI tumour cell line growth inhibition, 48 h
MEASUREMENT NAME: TGI

Provide the reported TGI of each entry below, same order.
1. COC(=O)[C@]12CC[C@@H](C)[C@H](C)[C@@H]1C1=CC[C@@H]3[C@@]4(C)CC(=O)[C@H](O)[C@@]5(C)COC(=C45)C[C@@]3(C)[C@]1(C)CC2
2. COC(=O)C1Cc2c([nH]c3ccccc23)C(c2cccc(O)c2)N1 (stereo not drawn)
3. CCOC(=O)c1cccc(NC(=O)CBr)c1
4. O/N=C1\CCc2cc(-c3nc(C4CCNCC4)[nH]c3-c3ccncc3)ccc21
5. COc1cc2c(cc1OC)C(=O)C(Br)CC2 (stereo not drawn)
6. O=[N+]([O-])c1ccc(-c2ccc(/C=N/n3c(-c4ccc(Cl)cc4)n[nH]c3=S)o2)cc1
7. CNC(=O)OCc1nc(SC(C)C)n(C)c1COC(=O)NC

Resp:
1. 45.2 µM
2. 76.1 µM
3. 0.521 µM
4. > 25 µM
5. > 100 µM
6. > 83.6 µM
7. > 100 µM

Each compound below has a reported value. Please supply its TGI.
1. Cc1cccc(/C=N/NC(=S)NCc2ccccn2)n1
2. O=C(O)C(Cc1ccc2c(c1)CCC2)(Cc1ccc2c(c1)CCC2)C(=O)O
3. O=S(=O)(O)CS(=O)(=O)OCCCl
4. COc1c(Cl)ccc(Cl)c1C(=O)NNC(=O)c1c(Cl)c(Cl)c(Cl)c(Cl)c1-c1nc2ccc(C(=O)c3ccccc3)cc2[nH]1

Resp:
1: > 100 µM; 2: > 100 µM; 3: > 100 µM; 4: > 100 µM

# return TGI for each item in the list
1. C=CC1C2=C(C(=O)NCC2)C2OC(O)C3=C(CCNC3=O)C2C1C (stereo not drawn)
2. O=C(CCCN1CCC2(CC1)C(=O)NC(=O)N2c1ccccc1)c1ccc(F)cc1
3. C[C@@H](c1ccc2nccn2c1)n1nnc2ncc(-c3cnn(C)c3)nc21

Resp:
["> 100 µM", "> 100 µM", "> 100 µM"]

* * *

tested on: MDA-MB-435; test: NCI tumour cell line growth inhibition, 48 h
Answer each item with its documented TGI.
Give bare numbers, in µM.

# example entries with known answers
COc1cc(O)c(C(=O)/C=C/c2ccccc2)c(OC)c1	25.5
COc1cc(-c2cc(C(=O)N3CCN(C(=O)c4ccccc4NCc4ccco4)CC3)nc3cc(-c4ccccc4)nn23)cc(OC)c1OC	1.61
COc1ccc(/C=C2\CN(C(=O)CCN3CCC(=NO)CC3)C/C(=C\c3ccc(OC)cc3)C2=O)cc1	3.49

Go through the items and report each one's TGI.
1. Oc1c(C2=NNC(c3cccs3)C2)ccc2ccccc12 (stereo not given)
2. CC[C@@H]1CN2CCC1C[C@@H]2C(O)c1ccnc2ccc(OCCN3CCN(CCOc4ccc5nccc(C(O)[C@@H]6C[C@@H]7CCN6C[C@@H]7CC)c5c4)CC3)cc12 (stereo not given in full)

Resp:
1: 40; 2: 28

Look up TGI for the entries below, preserving their order.
1. CC1(C)N=C(N)N=C(N)N1c1cccc(/C=C/C=C/c2cccc([N+](=O)[O-])c2)c1
2. Cc1cc2c(C)c3cc(C)c(N)cc3nc2cc1N
3. O=C1/C(=C\c2ccc([N+](=O)[O-])cc2)Sc2scc(-c3ccc(O)c(O)c3)[n+]21

Resp:
[15.2, 5.93, 21.9]

* * *

Could you please report measured GI50 for the items listed next?
system: BT-549 breast; assay: NCI tumour cell line growth inhibition, 48 h

COc1ccc(N(C)c2nc(C)nc3ccccc23)cc1	< 10 nM

Batch request: GI50 per item, same order as input.
1. CC12OC(C(=O)C13CC3)C1C(=O)c3ccccc3C(=O)C12 (centres undefined)
2. O=C(c1cccs1)c1c(C(F)(F)F)n([O-])c2ccc(C(F)(F)F)cc2[n+]1=O

Resp:
36200 nM
178 nM

* * *

tested on: HL-60(TB) leukemia; assay: NCI tumour cell line growth inhibition, 48 h
MEASUREMENT NAME: TGI

N#C/C(=C1\N=C(c2ccccc2O)Oc2ccccc21)c1ccc([N+](=O)[O-])cc1	> 100 µM
COc1c(OC(C)=O)ccc(/C=C2\N=C(C)OC2=O)c1[N+](=O)[O-]	> 100 µM
Cc1ccc(S(=O)(=O)N/N=C/C(Br)=C(/Br)C(=O)O)cc1	5.12 µM
CC1(C)CC(=O)C2=C(C1)NC(SSC1=C(C#N)C(c3ccccc3)C3=C(CC(C)(C)CC3=O)N1)=C(C#N)C2c1ccccc1 (centres undefined)	97.8 µg/mL
CCOC(=O)Cc1c(Cc2[nH]c(C(=O)OCc3ccccc3)c(CC(=O)OCC)c2CC(=O)OCC)[nH]c(C(=O)OCc2ccccc2)c1CC(=O)OCC	> 100 µM

Go through the list and state TGI for each entry.
1. Cn1cc(-c2ccc(=O)n(Cc3cccc(-c4ncc(OCCN5CCOCC5)cn4)c3)n2)cn1
2. CC12OC(C(=O)C13CC3)C1C(=O)c3ccccc3C(=O)C12 (centres undefined)
3. O=S(=O)(c1ccc(NC(=S)N/N=C/c2ccccc2O)cc1)N1CCCCC1
4. Cc1c(NC(=O)C(=O)N=NC(=O)c2ccncc2)c(O)c2ccccc2c1O

Resp:
> 100 µM
81.6 µM
7.12 µM
> 67.5 µM
